Tested on: RXF 393
Experiment: Growth inhibition of human RXF393 cells after 48 hrs by sulforhodamine B assay
Type: functional
Settings: RXF 393, 48 h, read-out: pLC50 (the source's name) (converted)
Endpoint name: CC50

Example results:
COc1ccc(CNc2nc3cc(N)cc(N)c3nc2-c2ccccc2)cc1OC : > 100 µM
Nc1cc(N)c2nc(-c3ccccc3)c(Sc3ccc(Cl)c(Cl)c3)nc2c1 : 60.3 µM
COc1ccc(Oc2nc3cc(N)cc(N)c3nc2-c2ccccc2)cc1 : > 100 µM
COc1cc(CNc2nc3cc(N)cc(N)c3nc2-c2ccccc2)cc(OC)c1OC : > 50.1 µM

Exam item: Give the measured CC50 for "Nc1cc(N)c2nc(-c3ccccc3)c(Oc3ccc(F)cc3)nc2c1"
Marked response: > 100 µM
